- assay text: microsomal stability
- cond: rat, microsomes
metric name: CLint scaled at 1 µM (mL/min/kg)

INSERT INTO results (compound, value_units, result_number) VALUES
  ('COc1cc(NC(=O)c2ccccn2)ccc1NC(=O)c1ccccc1Cl [Compound 9g]', 'mL/min/kg', 42.6),
  ('O=C(Nc1ccc(NC(=O)c2ccccc2Cl)c(F)c1)c1ccccn1 [Compound 10d]', 'mL/min/kg', 31.2),
  ('Cc1ccccc1C(=O)Nc1ccc(NC(=O)c2ccccn2)cc1Cl [Compound 12a]', 'mL/min/kg', 46.2),
  ('O=C(Nc1ccc(NC(=O)c2ccccc2Cl)c(Cl)c1)c1ccccn1 [Compound 10a]', 'mL/min/kg', 44.9),
  ('COc1cc(NC(=O)c2nccs2)ccc1NC(=O)c1ccccc1Cl [Compound 9e]', 'mL/min/kg', 185),
  ('COc1ccccc1C(=O)n1ccc2cc(NC(=O)c3ccccn3)ccc21 [Compound 15]', 'mL/min/kg', 605),
  ('O=C(Nc1ccc(NC(=O)c2ccc(F)cc2Cl)c(Cl)c1)c1ccccn1 [Compound 12d]', 'mL/min/kg', 54);

----------
- assay text: microsomal stability
- cond: microsomal intrinsic clearance in vitro
metric name: Rat Clint

INSERT INTO results (molecule, result) VALUES
  ('COc1cc(NC(=O)c2nccs2)ccc1NC(=O)c1ccccc1Cl', 'poor metabolic stability'),
  ('COc1ccccc1C(=O)n1ccc2cc(NC(=O)c3ccccn3)ccc21', 'poor metabolic stability'),
  ('O=C(Nc1ccc(NC(=O)c2ccccc2Cl)c(Cl)c1)c1ccccn1 [Compound 10a]', 'acceptable'),
  ('Cc1ccccc1C(=O)Nc1ccc(NC(=O)c2ccccn2)cc1Cl [Compound 12a]', 'acceptable');
